Reference source: patent US12060400B2

- System: HLA-A*24
- test details: MHC binding assay: UV-ligand exchange with beta2m ELISA (peptide exchange yield)
- Set-up: species or system human
- condition set: Table 11, binding to HLA-A*24, UV-ligand exchange
recorded endpoint: Peptide exchange (MHC class I binding score, peptide exchange yield)

>>> print(df.to_string())
                                  substance      reported_value
0  346 (TYIDFVPYI; listed as Homo sapiens) [compound 346]  ++++ (>75% = ++++)
1  276 (KFLGSKCSF; listed as Homo sapiens) [compound 276]  ++++ (>75% = ++++)
2  187 (KWFNVRMGFGF; listed as Homo sapiens) [compound 187]      ++ (>20% = ++)
3  387 (THAGVRLYF; listed as Homo sapiens) [compound 387]      ++ (>20% = ++)
4  37 (ISFSDTVNVW; listed as Homo sapiens) [compound 37]        + (>10% = +)

[in] Item under review: 150 (FIPVAWLIF; listed as Homo sapiens) [compound 150] . Reported Peptide exchange (MHC class I binding score, peptide exchange yield)?
[out] +++ (>50 = +++)

[in] Recorded Peptide exchange (MHC class I binding score, peptide exchange yield) for 21 (LYMRFVNTHF; listed as Homo sapiens) [compound 21] , please?
[out] ++ (>20% = ++)

[in] Peptide exchange (MHC class I binding score, peptide exchange yield) lookup needed for 298 (TYETVMTFF; listed as Homo sapiens) [compound 298] , thanks.
[out] ++++ (>75% = ++++)

[in] Field request: Peptide exchange (MHC class I binding score, peptide exchange yield) | item: 88 (TYVPSTFLV; listed as Homo sapiens) [compound 88]
[out] ++++ (>75% = ++++)

[in] Name the recorded Peptide exchange (MHC class I binding score, peptide exchange yield) for 115 (IMQGFIRAF; listed as Homo sapiens) [compound 115] .
[out] ++ (>20% = ++)

[in] Looking for the measured Peptide exchange (MHC class I binding score, peptide exchange yield) of 306 (RYILEPFFI; listed as Homo sapiens) [compound 306] , can you help?
[out] ++++ (>75% = ++++)

[in] Query (substance): 209 (DIYVTGGHLF; listed as Homo sapiens) [compound 209] ; field requested: Peptide exchange (MHC class I binding score, peptide exchange yield)
[out] +++ (>50 = +++)

[in] # get_value(readout='Peptide exchange (MHC class I binding score, peptide exchange yield)', item= 291 (YTRLVLQF; listed as Homo sapiens) [compound 291] )
[out] ++ (>20% = ++)

---

- Test system: HLA-A*24
- test details: MHC binding assay: UV-ligand exchange with beta2m ELISA (peptide exchange yield)
- Design: species or system human
- condition set: Table 11, binding to HLA-A*24, UV-ligand exchange
recorded endpoint: Peptide exchange (MHC class I binding score, peptide exchange yield)

These recorded examples may help you get a feel for the data.
In [3]: df
Out[3]:
                                  substance      reported_value
0  189 (FYPDEDDFYF; listed as Homo sapiens) [compound 189]     +++ (>50 = +++)
1  310 (EFINGWYVL; listed as Homo sapiens) [compound 310]      ++ (>20% = ++)
2  361 (KQPANFIVL; listed as Homo sapiens) [compound 361]      ++ (>20% = ++)
3  336 (VYSDLHAFY; listed as Homo sapiens) [compound 336]  ++++ (>75% = ++++)
4  94 (THSGGTNLF; listed as Homo sapiens) [compound 94]      ++ (>20% = ++)

[in] // Peptide exchange (MHC class I binding score, peptide exchange yield) lookup, key: 266 (TQIITFESF; listed as Homo sapiens) [compound 266]
[out] ++ (>20% = ++)

[in] I have this substance here, 311 (IQNAILHLF; listed as Homo sapiens) [compound 311] , and I need its recorded Peptide exchange (MHC class I binding score, peptide exchange yield).
[out] ++++ (>75% = ++++)

[in] Fill in the blank: the reported Peptide exchange (MHC class I binding score, peptide exchange yield) of 335 (RYQSVIYPF; listed as Homo sapiens) [compound 335] is ____.
[out] ++++ (>75% = ++++)

[in] Can you share its Peptide exchange (MHC class I binding score, peptide exchange yield)? I mean this substance: 110 (VYSNPDLFW; listed as Homo sapiens) [compound 110]
[out] ++++ (>75% = ++++)

---

- Test system: HLA-A*24
- test details: MHC binding assay: UV-ligand exchange with beta2m ELISA (peptide exchange yield)
- Parameters: species or system human
- condition set: Table 11, binding to HLA-A*24, UV-ligand exchange
recorded endpoint: Peptide exchange (MHC class I binding score, peptide exchange yield)

Past entries and their recorded results:
>>> df
                                  substance  assayed_system      reported_value
0  272 (IYFNHRCF; listed as Homo sapiens) [compound 272]        HLA-A*24     +++ (>50 = +++)
1  195 (IYNEHGIQQI; listed as Homo sapiens) [compound 195]        HLA-A*24  ++++ (>75% = ++++)
2  157 (SIYPHGVTF; listed as Homo sapiens) [compound 157]        HLA-A*24      ++ (>20% = ++)
3  367 (HWSHITHLF; listed as Homo sapiens) [compound 367]        HLA-A*24  ++++ (>75% = ++++)

[in] # returns recorded Peptide exchange (MHC class I binding score, peptide exchange yield) (system: HLA-A*24) for 49 (QYLSIAERAEF; listed as Homo sapiens) [compound 49]
[out] ++++ (>75% = ++++)

[in] # get_value(readout= Peptide exchange (MHC class I binding score, peptide exchange yield), system= HLA-A*24) for 125 (LYYGSILYI; listed as Homo sapiens) [compound 125]
[out] ++++ (>75% = ++++)

[in] // fetch HLA-A*24 Peptide exchange (MHC class I binding score, peptide exchange yield) for 338 (VYLTWLPGL; listed as Homo sapiens) [compound 338]
[out] ++++ (>75% = ++++)

[in] Value wanted: Peptide exchange (MHC class I binding score, peptide exchange yield) (HLA-A*24) of entry 325 (IFMGAVPTL; listed as Homo sapiens) [compound 325]
[out] ++++ (>75% = ++++)

[in] Notebook entry, HLA-A*24 assay: Peptide exchange (MHC class I binding score, peptide exchange yield) of 356 (YSLEHLTQF; listed as Homo sapiens) [compound 356] = ?
[out] ++ (>20% = ++)

[in] Item 117 (RSMEHPGKLLF; listed as Homo sapiens) [compound 117] with HLA-A*24 - Peptide exchange (MHC class I binding score, peptide exchange yield)?
[out] +++ (>50 = +++)

[in] Notebook entry, HLA-A*24 assay: Peptide exchange (MHC class I binding score, peptide exchange yield) of 148 (MLPQIPFLLL; listed as Homo sapiens) [compound 148] = ?
[out] ++ (>20% = ++)

---

- System: HLA-A*24
- test details: MHC binding assay: UV-ligand exchange with beta2m ELISA (peptide exchange yield)
- Design: species or system human
- condition set: Table 11, binding to HLA-A*24, UV-ligand exchange
recorded endpoint: Peptide exchange (MHC class I binding score, peptide exchange yield)

Consider the following illustrative entries.
                                  substance  assayed_system      reported_value
0  203 (VYPSESTVM; listed as Homo sapiens) [compound 203]        HLA-A*24      ++ (>20% = ++)
1  80 (SYATPVDLW; listed as Homo sapiens) [compound 80]        HLA-A*24  ++++ (>75% = ++++)
2  352 (NAFEAPLTF; listed as Homo sapiens) [compound 352]        HLA-A*24     +++ (>50 = +++)
3  343 (EYQQYHPSL; listed as Homo sapiens) [compound 343]        HLA-A*24  ++++ (>75% = ++++)

[in] API: value(readout=Peptide exchange (MHC class I binding score, peptide exchange yield), system=HLA-A*24) for record 380 (FYIRRLPMF; listed as Homo sapiens) [compound 380]
[out] ++++ (>75% = ++++)

[in] Missing value: Peptide exchange (MHC class I binding score, peptide exchange yield), HLA-A*24, entry 39 (KTYLPTFETTI; listed as Homo sapiens) [compound 39] . Fill in?
[out] ++ (>20% = ++)

[in] Param readout = Peptide exchange (MHC class I binding score, peptide exchange yield); param system = HLA-A*24; param query = 119 (VWSCEGCKAF; listed as Homo sapiens) [compound 119] ; response: value
[out] ++ (>20% = ++)

[in] What Peptide exchange (MHC class I binding score, peptide exchange yield) appears in the records for this substance with HLA-A*24? 176 (TQAGEYLLF; listed as Homo sapiens) [compound 176]
[out] ++++ (>75% = ++++)

[in] Observed Peptide exchange (MHC class I binding score, peptide exchange yield) on HLA-A*24 for 61 (RIFTARLYF; listed as Homo sapiens) [compound 61] , please.
[out] +++ (>50 = +++)

[in] What reported Peptide exchange (MHC class I binding score, peptide exchange yield) corresponds to 31 (KQMQEFFGL; listed as Homo sapiens) [compound 31] on HLA-A*24?
[out] +++ (>50 = +++)

[in] What reported Peptide exchange (MHC class I binding score, peptide exchange yield) corresponds to 377 (SLWREVVTF; listed as Homo sapiens) [compound 377] on HLA-A*24?
[out] +++ (>50 = +++)

[in] Form field - read-out: Peptide exchange (MHC class I binding score, peptide exchange yield); system: HLA-A*24; submitted item: 267 (QHMLPFWTDL; listed as Homo sapiens) [compound 267]
[out] +++ (>50 = +++)
